Please provide measured Urine Na % of control for the entries that follow.
# Test system: absorption of sodium from the intestinal lumen
# ASSAY PROTOCOL: Inhibition of intestinal sodium absorption: urinary sodium (uNa) 16 h after single oral dose in rats
# Format: in vivo, rat
# RECORDED CONDITIONS: oral gavage, dose 3 mg/kg, 16 h post-dose
Unit % implied. Number only.

Qu. For absorption of sodium from the intestinal lumen, provide Urine Na % of control of `CN1Cc2c(Cl)cc(Cl)cc2[C@H](c2cccc(S(=O)(=O)NCCOCCOCCOCCNC(=O)CC(O)(CC(=O)NCCOCCOCCOCCNS(=O)(=O)c3cccc([C@@H]4CN(C)Cc5c(Cl)cc(Cl)cc54)c3)C(=O)NCCOCCOCCOCCNS(=O)(=O)c3cccc([C@@H]4CN(C)Cc5c(Cl)cc(Cl)cc54)c3)c2)C1` please.
Ans. 50

Qu. `CN1Cc2c(Cl)cc(Cl)cc2[C@H](c2cccc(S(=O)(=O)NCCOCCOCCNC(=O)NCCCN(CCCNC(=O)NCCOCCOCCNS(=O)(=O)c3cccc([C@@H]4CN(C)Cc5c(Cl)cc(Cl)cc54)c3)CCCNC(=O)NCCOCCOCCNS(=O)(=O)c3cccc([C@@H]4CN(C)Cc5c(Cl)cc(Cl)cc54)c3)c2)C1` , same question.
Ans. 36

Qu. `CN1Cc2c(Cl)cc(Cl)cc2[C@H](c2cccc(S(=O)(=O)NCCOCCOCCNC(=O)CN(CCOCCOCCOCCNC(=O)c3ccc(-c4ccc(Cl)cc4)cc3)CC(=O)NCCOCCOCCNS(=O)(=O)c3cccc([C@@H]4CN(C)Cc5c(Cl)cc(Cl)cc54)c3)c2)C1` , same question.
Ans. 119

* * *

# TARGET DESC: Human NHE3 (Homo sapiens, UniProt P48764)
# Construct: expressed in transfected cells; host or cells: Opossum kidney (OK) cells (ATCC), electroporation
# Sequence (P48764 26-834): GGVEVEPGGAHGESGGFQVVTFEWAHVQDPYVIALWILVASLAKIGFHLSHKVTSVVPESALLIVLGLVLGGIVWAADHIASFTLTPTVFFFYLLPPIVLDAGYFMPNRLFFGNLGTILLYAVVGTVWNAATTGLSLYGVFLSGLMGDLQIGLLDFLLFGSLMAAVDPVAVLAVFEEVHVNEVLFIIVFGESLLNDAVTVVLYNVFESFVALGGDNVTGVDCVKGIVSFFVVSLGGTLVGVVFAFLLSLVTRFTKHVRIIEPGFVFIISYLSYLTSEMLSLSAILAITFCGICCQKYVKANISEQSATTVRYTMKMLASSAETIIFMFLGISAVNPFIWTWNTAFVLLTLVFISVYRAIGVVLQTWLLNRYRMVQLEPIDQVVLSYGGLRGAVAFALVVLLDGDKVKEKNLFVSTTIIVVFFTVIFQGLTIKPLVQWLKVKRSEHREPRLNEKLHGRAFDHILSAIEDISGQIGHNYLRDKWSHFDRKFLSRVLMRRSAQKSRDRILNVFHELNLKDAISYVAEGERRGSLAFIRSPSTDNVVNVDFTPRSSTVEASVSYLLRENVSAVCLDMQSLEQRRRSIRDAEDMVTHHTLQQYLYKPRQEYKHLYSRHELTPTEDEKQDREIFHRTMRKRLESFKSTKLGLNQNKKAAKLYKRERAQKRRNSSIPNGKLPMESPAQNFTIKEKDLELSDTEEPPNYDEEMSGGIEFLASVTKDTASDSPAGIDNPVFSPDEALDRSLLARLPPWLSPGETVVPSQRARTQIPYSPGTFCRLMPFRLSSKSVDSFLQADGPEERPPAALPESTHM
# ASSAY PROTOCOL: Cell-based NHE3 activity under prompt conditions (OK cells, BCECF pH recovery), human NHE3
# RECORDED CONDITIONS: prompt conditions
OBSERVED PROPERTY: Prompt Human NHE3 pIC50
// no unit, no text: just the number

Qu. For Human NHE3 (Homo sapiens, UniProt P48764), provide Prompt Human NHE3 pIC50 of C/C(=C\c1cc(F)c(Oc2ccc(S(=O)(=O)NCCOCCOCCOCCNC(=O)OCCOCCOCCOC(=O)NCCOCCOCCOCCNS(=O)(=O)c3ccc(Oc4c(F)cc(/C=C(\C)C(=O)N=C(N)N)cc4F)cc3)cc2)c(F)c1)C(=O)N=C(N)N [compound 26] please.
Ans. 7.70

Qu. CN1Cc2c(Cl)cc(Cl)cc2[C@H](c2cccc(S(=O)(=O)NCCOCCOCCOCCNC(=O)COCC(=O)NCCOCCOCCOc3cccc(-c4nc(NC(=N)N)nc5ccc(Cl)cc45)c3)c2)C1 [compound 25] , same question.
Ans. 6.60

Qu. O=C(NCCCCNC(=O)NCCOCCOCCNS(=O)(=O)c1ccc(O[C@H]2c3cc(Cl)cc(F)c3C[C@@H]2N2CCCCC2)cc1)NCCOCCOCCNS(=O)(=O)c1ccc(O[C@H]2c3cc(Cl)cc(F)c3C[C@@H]2N2CCCCC2)cc1 [compound 160] , same question.
Ans. 7.70

Qu. O=C(NCCCCNC(=O)NCCOCCOCCOCCNS(=O)(=O)c1ccc(O[C@H]2c3ccccc3C[C@@H]2N2CCCCC2)cc1)NCCOCCOCCOCCNS(=O)(=O)c1ccc(O[C@H]2c3ccccc3C[C@@H]2N2CCCCC2)cc1 [compound 72] , same question.
Ans. 8.25

Qu. CN1Cc2c(Cl)cc(Cl)cc2[C@H](c2cccc(S(=O)(=O)NCCOCCOCCNC(=O)CCC(CCC(=O)NCCOCCOCCNS(=O)(=O)c3cccc([C@@H]4CN(C)Cc5c(Cl)cc(Cl)cc54)c3)(CCC(=O)NCCOCCOCCNS(=O)(=O)c3cccc([C@@H]4CN(C)Cc5c(Cl)cc(Cl)cc54)c3)NC(=O)CCC(=O)O)c2)C1 [compound 123] , same question.
Ans. 7.80

Qu. CN(CC(=O)O)CC(=O)NC(CCC(=O)NCCOCCOCCNS(=O)(=O)c1cccc([C@@H]2CN(C)Cc3c(Cl)cc(Cl)cc32)c1)(CCC(=O)NCCOCCOCCNS(=O)(=O)c1cccc([C@@H]2CN(C)Cc3c(Cl)cc(Cl)cc32)c1)CCC(=O)NCCOCCOCCNS(=O)(=O)c1cccc([C@@H]2CN(C)Cc3c(Cl)cc(Cl)cc32)c1 [compound 138] , same question.
Ans. 7.30

Qu. CN1Cc2c(Cl)cc(Cl)cc2[C@H](c2cccc(S(=O)(=O)NCCOCCOCCNC(=O)CCC(CCC(=O)NCCOCCOCCNS(=O)(=O)c3cccc([C@@H]4CN(C)Cc5c(Cl)cc(Cl)cc54)c3)(CCC(=O)NCCOCCOCCNS(=O)(=O)c3cccc([C@@H]4CN(C)Cc5c(Cl)cc(Cl)cc54)c3)NC(=O)NC(CO)CO)c2)C1 [compound 178] , same question.
Ans. 7.33

Qu. CN(C)[C@H]1Cc2c(F)cc(Cl)cc2[C@@H]1Oc1ccc(S(=O)(=O)NCCOCCOCCNC(=O)NCCCCNC(=O)NCCOCCOCCNS(=O)(=O)c2ccc(O[C@H]3c4cc(Cl)cc(F)c4C[C@@H]3N(C)C)cc2)cc1 [compound 166] , same question.
Ans. 8.40

Qu. CN1Cc2c(Cl)cc(Cl)cc2[C@H](c2cccc(S(=O)(=O)NCCOCCOCCOCCNC(=O)CCC(N)(CCC(=O)NCCOCCOCCOCCNS(=O)(=O)c3cccc([C@@H]4CN(C)Cc5c(Cl)cc(Cl)cc54)c3)CCC(=O)NCCOCCOCCOCCNS(=O)(=O)c3cccc([C@@H]4CN(C)Cc5c(Cl)cc(Cl)cc54)c3)c2)C1 [compound 90] , same question.
Ans. 7.85

Qu. CN1Cc2c(Cl)cc(Cl)cc2[C@H](c2cccc(S(=O)(=O)NCCOCCOCCN(C)C(=O)CCC(CCC(=O)N(C)CCOCCOCCNS(=O)(=O)c3cccc([C@@H]4CN(C)Cc5c(Cl)cc(Cl)cc54)c3)(CCC(=O)N(C)CCOCCOCCNS(=O)(=O)c3cccc([C@@H]4CN(C)Cc5c(Cl)cc(Cl)cc54)c3)NC(=O)COCC(=O)O)c2)C1 [compound 177] , same question.
Ans. 7.80

Qu. CN1Cc2c(Cl)cc(Cl)cc2[C@H](c2cccc(S(=O)(=O)NCCOCCOCCNC(=O)NCCN(CCNC(=O)NCCOCCOCCNS(=O)(=O)c3cccc([C@@H]4CN(C)Cc5c(Cl)cc(Cl)cc54)c3)C(=O)CCOCCOCCOCCOCCOCCOCCOCCOCCOCCC(=O)N(CCNC(=O)NCCOCCOCCNS(=O)(=O)c3cccc([C@@H]4CN(C)Cc5c(Cl)cc(Cl)cc54)c3)CCNC(=O)NCCOCCOCCNS(=O)(=O)c3cccc([C@@H]4CN(C)Cc5c(Cl)cc(Cl)cc54)c3)c2)C1 [compound 95] , same question.
Ans. 7.00

Qu. CN1Cc2c(Cl)cc(Cl)cc2[C@H](c2cccc(S(=O)(=O)NCCOCCOCCOCCNC(=O)CN(CC(=O)NCCOCCOCCOCCNS(=O)(=O)c3cccc([C@@H]4CN(C)Cc5c(Cl)cc(Cl)cc54)c3)CC(=O)NCCOCCOCCOCCNS(=O)(=O)c3cccc([C@@H]4CN(C)Cc5c(Cl)cc(Cl)cc54)c3)c2)C1 [compound 57] , same question.
Ans. 7.50
